B1: Progranulin (Homo sapiens), P28799 (parent)
chain: MWTLVSWVALTAGLVAGTRCPDGQFCPVACCLDPGGASYSCCRPLLDKWPTTLSRHLGGPCQVDAHCSAGHSCIFTVSGTSSCCPFPEAVACGDGHHCCPRGFHCSADGRSCFQRSGNNSVGAIQCPDSQFECPDFSTCCVMVDGSWGCCPMPQASCCEDRVHCCPHGAFCDLVHTRCITPTGTHPLAKKLPAQRTNRAVALSSSVMCPDARSRCPDGSTCCELPSGKYGCCPMPNATCCSDHLHCCPQDTVCDLIQSKCLSKENATTDLLTKLPAHTVGDVKCDMEVSCPDGYTCCRLQSGAWGCCPFTQAVCCEDHIHCCPAGFTCDTQKGTCEQGPHQVPWMEKAPAHLSLPDPQALKRDVPCDNVSSCPSSDTCCQLTSGEWGCCPIPEAVCCSDHQHCCPQGYTCVAEGQCQRGSEIVAGLEKMPARRASLSHPRDIGCDQHTSCPVGQTCCPSLGGSWACCQLPHAVCCEDRQHCCPAGYTCNVKARSCEKEVVSAQPATFLARSPHVGVKDVECGEGHFCHDNQTCCRDNRQGWACCPYRQGVCCADRRHCCPAGFRCAARGTKCLRREAPRWDAPLRDPALRQLL

# Variants of: B1
# details: with otx1_human OTX1, P32242
# Sequence (P32242 whole entry): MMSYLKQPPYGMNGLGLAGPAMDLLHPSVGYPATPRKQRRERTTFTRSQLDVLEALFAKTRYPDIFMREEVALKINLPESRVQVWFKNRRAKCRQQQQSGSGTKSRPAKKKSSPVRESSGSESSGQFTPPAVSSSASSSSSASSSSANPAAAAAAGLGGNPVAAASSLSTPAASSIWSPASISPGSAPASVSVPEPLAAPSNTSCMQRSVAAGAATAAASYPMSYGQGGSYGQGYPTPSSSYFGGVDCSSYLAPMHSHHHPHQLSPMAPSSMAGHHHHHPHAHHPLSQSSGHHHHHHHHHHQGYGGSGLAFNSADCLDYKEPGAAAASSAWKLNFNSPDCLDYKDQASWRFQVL
propertyLabel: effect of a mutation on the interaction

P248L : with no effect
R432C : with no effect
P451L : with no effect
